Below, each entry is listed with its recorded melting point.
READOUT: melting point

{"SMILES STRING": "S=C1Nc2ccccc2SC1=Cc1c[nH]c2ccccc12", "EXPERIMENTAL RESULT": "253 to 256 °C"}
{"SMILES STRING": "O=C(ON=C1Nc2ccccc2SC1=Cc1ccc[nH]1)c1ccccc1", "EXPERIMENTAL RESULT": "188 to 189 °C"}
{"SMILES STRING": "S=C1Nc2ccccc2SC1=Cc1ccc[nH]1", "EXPERIMENTAL RESULT": "205 to 206 °C"}
{"SMILES STRING": "CC(=O)OCCCCn1cc(C=C2Sc3ccccc3NC2=O)c2cccnc21", "EXPERIMENTAL RESULT": "158 to 160 °C"}
{"SMILES STRING": "O=C1Nc2ncccc2OC1=Cc1ccccc1", "EXPERIMENTAL RESULT": "223 to 225 °C"}
{"SMILES STRING": "S=C1Nc2ccccc2SC1=Cc1c[nH]c2ncccc12", "EXPERIMENTAL RESULT": "287 to 290 °C"}
{"SMILES STRING": "COc1ccc(NC=C2C(=O)Nc3ccccc3S2(=O)=O)cc1", "EXPERIMENTAL RESULT": "250 to 251 °C"}
{"SMILES STRING": "S=C1Nc2ccccc2OC1=Cc1ccc[nH]1", "EXPERIMENTAL RESULT": "241 to 243 °C"}
{"SMILES STRING": "ON=C1Nc2ccccc2OC1=Cc1ccc[nH]1", "EXPERIMENTAL RESULT": "192 to 194 °C"}
{"SMILES STRING": "ON=C1Nc2ccccc2SC1=Cc1ccc[nH]1", "EXPERIMENTAL RESULT": "204 to 205 °C"}
{"SMILES STRING": "CC(=O)ON=C1Nc2ccccc2SC1=Cc1ccc[nH]1", "EXPERIMENTAL RESULT": "182 to 185 °C"}
{"SMILES STRING": "O=C1Nc2ccccc2S(=O)(=O)C1=Cc1c[nH]c2ccccc12", "EXPERIMENTAL RESULT": "318 to 320 °C"}
{"SMILES STRING": "S=C1Nc2ccccc2OC1=Cc1c[nH]c2ccccc12", "EXPERIMENTAL RESULT": "275 to 277 °C"}
